System: Human cecum-derived cell line NCI-H716
protocol.summary: GLP-1 secretion promoting activity in NCI-H716 cells
Format: cell-based
condition.description: sample 20 mM, 37° C., 60 minutes
measured.metric: Relative Value (amount of GLP-1 secreted, buffer control = 1)
Give bare numbers.

Consider the reported Relative Value (amount of GLP-1 secreted, buffer control = 1) for these compounds:
smi=N[C@@H](CCC(=O)Nc1cccc(S(=O)(=O)O)c1)C(=O)O value=1.82
smi=N[C@@H](CCC(=O)Nc1cc(Cl)cc(S(=O)(=O)O)c1O)C(=O)O value=2.90
smi=Cc1c(Cl)cc(NC(=O)CC[C@H](N)C(=O)O)cc1S(=O)(=O)O value=4.38

Now take the following compound into account.
Ask | Give Relative Value (amount of GLP-1 secreted, buffer control = 1); test system Human cecum-derived cell line NCI-H716; compound Cc1c(Cl)cc(S(=O)(=O)O)cc1NC(=O)CC[C@H](N)C(=O)O
Reply | 2.22
